Source listed as the RNAGym collection of RNA variant scans (doi:10.1002/anie.201605470).

B1: Osa-1-4 twister ribozyme (parent)
chain: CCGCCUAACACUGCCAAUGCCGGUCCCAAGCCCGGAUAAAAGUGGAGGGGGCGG

Variants of: B1
Test: self-cleavage, relative activity (ratio to wild type); higher = more cleavage; co-transcriptional
Each entry below carries its recorded self-cleavage.
Lab note: jot the number down without any unit.

self-cleavage in this record for A8G C32G : 0.13

Item: C21A G53U | self-cleavage: 0.11

Continuing:
For reference, reported self-cleavage for C27A G49A stands at 0.04

For this variant ( C52U G34U ), measured self-cleavage is 0.85

Documented self-cleavage of A28U G54C : 0.71

A38G A39G has a reported self-cleavage of 0.4

In plain terms, A28U C31U has a documented self-cleavage of 0.19

# self-cleavage of A17G G23U = 0.08

self-cleavage in this record for C11A C52A : 0.63

Documented self-cleavage of C15A U37C : 0.59

Just so you know, measured self-cleavage for `A38G` came out at 1.01

Value of measured self-cleavage for the entry G47C G48U : 0.03

The variant listed as A40C G13A has a reported self-cleavage of 0.03

Lab note: measured self-cleavage of G34C G42A was 0.09

Noted for A40C G53U : its self-cleavage reads 0.05

self-cleavage for A29C U12A is 0.05

For record G44A U18C the listed self-cleavage is 0.83

Recorded result, G49U G51U , self-cleavage: 0.12

Input U18C U37A . Output self-cleavage: 0.69

self-cleavage recorded for this variant, A46G C20U , is 0.07

Entry G19C G42U ; self-cleavage = 0.02

Lookup result for A46U G47A ; measured self-cleavage: 0.06
